meta.source: patent US8148424B2

- Test system: PC-3
- Assay procedure: Bioassay for apoptosis (apoptotic EC50)
- Type: cell-based, human
- Condition parameters: Homo sapiens, PC-3, PC-3; unit inferred
Would you mind telling me the reported EC50 of each entry?

compound="COC(=O)COc1c(C)c(C)c2c(c1C)CC[C@@](C)(CCC[C@H](C)CCC[C@H](C)CCCC(C)C)O2 [Compound 11]" experimental_system=PC-3 parameter_measured=EC50 result="> 20 µg/mL"
compound="Cc1cc(OCC(=O)O)cc2c1O[C@](C)(CCC[C@H](C)CCC[C@H](C)CCCC(C)C)CC2 [Compound 9]" experimental_system=PC-3 parameter_measured=EC50 result="5 to 10 µg/mL"
compound="CC(C)=CCC/C(C)=C\\C=C/[C@]1(C)CCc2c(C)c(OCC(=O)O)c(C)c(C)c2O1 [Compound 26]" experimental_system=PC-3 parameter_measured=EC50 result="> 20 µg/mL"

Task: For the compound shown here, Cc1c(OCC(=O)O)cc2c(c1C)O[C@](C)(CCC[C@H](C)CCC[C@H](C)CCCC(C)C)CC2 [Compound 8] , give the reported EC50.
Result: 5 to 10 µg/mL

###

- System: RL-95-2
- Assay procedure: Bioassay for apoptosis (apoptotic EC50)
- Assay type: cell-based, human
- Condition parameters: Homo sapiens, RL95-2, RL-95-2; unit inferred
- Protocol: Cells were cultured at 1.5×10^5 cells/well in 12 well plates. Cells were allowed to adhere overnight, then incubated with novel test compounds at 0.01, 0.1, 1, 5, 10 & 20 μg/mL for 1, 2 and 3 days. […] Cells whose nucleus contained clearly condensed or fragmented chromatin or stained for fragmented DNA in the TUNEL assay were scored as apoptotic. […]
Parameter measured: EC50

Return reported EC50 values for all items listed beneath this line.
1. Cc1c(OCC(=O)O)cc2c(c1C)O[C@](C)(CCC[C@H](C)CCC[C@H](C)CCCC(C)C)CC2 [Compound 8]
2. Cc1c(C)c2c(c(C)c1OCC(=O)N(CC(=O)O)CC(=O)O)CC[C@@](C)(CCC[C@H](C)CCC[C@H](C)CCCC(C)C)O2 [Compound 12]
3. COC(=O)COc1c(C)c(C)c2c(c1C)CC[C@@](C)(CCC[C@H](C)CCC[C@H](C)CCCC(C)C)O2 [Compound 11]
4. CCCCCCCCCCCCCCCCC[C@]1(C)CCc2c(C)c(OCC(=O)O)c(C)c(C)c2O1 [Compound 25]
5. Cc1cc(OCC(=O)O)cc2c1O[C@](C)(CCC[C@H](C)CCC[C@H](C)CCCC(C)C)CC2 [Compound 9]
6. Cc1cc(OCC(=O)O)c(C)c2c1O[C@](C)(CCC[C@H](C)CCC[C@H](C)CCCC(C)C)CC2 [Compound 7]
7. Cc1c(C)c2c(c(C)c1OCC(=O)O)CC[C@@](C)(CCC[C@H](C)CCC[C@H](C)CCCC(C)C)O2 [Compound 1]
8. Cc1c(C)c2c(c(C)c1OCC(=O)O)CCC(C)(CCCC(C)CCCC(C)CCCC(C)C)O2 (racemic) [Compound 15]

Result:
["1 to 5 µg/mL", "5 to 10 µg/mL", "> 20 µg/mL", "> 20 µg/mL", "5 to 10 µg/mL", "5 to 10 µg/mL", "10 to 20 µg/mL", "> 20 µg/mL"]

###

- Test system: MCF-7
- Assay procedure: Bioassay for apoptosis (apoptotic EC50)
- Type: cell-based, human
- Condition parameters: Homo sapiens, MCF7, MCF-7; unit inferred
Parameter measured: EC50

Here's what some known entries look like.
compound="Cc1c(C)c2c(c(C)c1OCC(=O)O)CC[C@@](C)(CCCC(C)CCCC(C)CCCC(C)C)O2 (some centres unmarked)" result="10 to 20 µg/mL"
compound=Cc1cc(OCC(=O)O)cc2c1O[C@](C)(CCC[C@H](C)CCC[C@H](C)CCCC(C)C)CC2 result="10 to 20 µg/mL"
compound=Cc1cc(OCC(=O)O)c(C)c2c1O[C@](C)(CCC[C@H](C)CCC[C@H](C)CCCC(C)C)CC2 result="10 to 20 µg/mL"

List EC50 for every entry below, keeping the order given.
1. Cc1c(C)c2c(c(C)c1OCC(=O)O)CCC(C)(CCCC(C)CCCC(C)CCCC(C)C)O2 (racemic)
2. Cc1c(OCC(=O)O)cc2c(c1C)O[C@](C)(CCC[C@H](C)CCC[C@H](C)CCCC(C)C)CC2
3. CCCCCCC[C@]1(C)CCc2c(C)c(OCC(=O)O)c(C)c(C)c2O1
4. COC(=O)COc1c(C)c(C)c2c(c1C)CC[C@@](C)(CCC[C@H](C)CCC[C@H](C)CCCC(C)C)O2
5. CC(C)=CCC/C(C)=C\C=C/[C@]1(C)CCc2c(C)c(OCC(=O)O)c(C)c(C)c2O1
6. Cc1c(C)c2c(c(C)c1OCC(=O)O)CCC(C)(C)O2

Result:
1: 20 to 30 µg/mL; 2: 10 to 20 µg/mL; 3: > 20 µg/mL; 4: > 20 µg/mL; 5: > 20 µg/mL; 6: > 20 µg/mL

###

- Test system: T47D
- Assay procedure: Bioassay for apoptosis (apoptotic EC50)
- Type: cell-based
- Condition parameters: Homo sapiens, unit inferred
Parameter measured: EC50

Known EC50 results, listed for orientation:
molecule="Cc1c(C)c2c(c(C)c1OCC(=O)O)C=C[C@@](C)(CCC[C@H](C)CCC[C@H](C)CCCC(C)C)O2 [Compound 20]" parameter_measured=EC50 result="5 to 10 µg/mL"
molecule="CC(C)=CCC/C(C)=C\\C=C/[C@]1(C)CCc2c(C)c(OCC(=O)O)c(C)c(C)c2O1 [Compound 26]" parameter_measured=EC50 result="> 20 µg/mL"

Dear colleague, could you please provide EC50 for the molecules listed below?
1. Cc1cc(OCC(=O)O)c(C)c2c1O[C@](C)(CCC[C@H](C)CCC[C@H](C)CCCC(C)C)CC2 [Compound 7]
2. Cc1c(C)c2c(c(C)c1OCC(=O)O)CC[C@@](C)(CCC[C@H](C)CCC[C@H](C)CCCC(C)C)O2 [Compound 1]
3. Cc1c(C)c2c(c(C)c1OCC(=O)O)CC[C@@](C)(CCCC(C)CCCC(C)CCCC(C)C)O2 (some centres unmarked) [Compound 17]

Result:
> 20 µg/mL
> 20 µg/mL
10 to 20 µg/mL

###

Assignment: determine reported EC50 for the given compounds.
- Tested on: PC-3
- Assay procedure: Bioassay for apoptosis (apoptotic EC50)
- Assay type: cell-based, human
- Condition parameters: Homo sapiens, PC-3, PC-3; unit inferred

Reference set, count: 2
chem_smiles=CCCCCCC[C@]1(C)CCc2c(C)c(OCC(=O)O)c(C)c(C)c2O1 result="> 20 µg/mL"
chem_smiles=Cc1c(C)c2c(c(C)c1OCC(=O)N(CC(=O)O)CC(=O)O)CC[C@@](C)(CCC[C@H](C)CCC[C@H](C)CCCC(C)C)O2 result="10 to 20 µg/mL"

Would you mind listing EC50 for each of the following compounds?
1. Cc1c(C)c2c(c(C)c1OCC(=O)O)C=C[C@@](C)(CCC[C@H](C)CCC[C@H](C)CCCC(C)C)O2
2. Cc1cc(OCC(=O)O)c(C)c2c1O[C@](C)(CCC[C@H](C)CCC[C@H](C)CCCC(C)C)CC2

Result:
["5 to 10 µg/mL", "5 to 10 µg/mL"]

// input: 3 compounds below; output: EC50 for each
1. CCCCCCCCCCCCC[C@]1(C)CCc2c(C)c(OCC(=O)O)c(C)c(C)c2O1
2. Cc1c(C)c2c(c(C)c1OCC(=O)O)CCC(C)(C)O2
3. CCCCCCCCCCCCCCCCC[C@]1(C)CCc2c(C)c(OCC(=O)O)c(C)c(C)c2O1

Result:
["> 20 µg/mL", "> 20 µg/mL", "20 to 30 µg/mL"]

###

- System: DU-145
- Assay procedure: Bioassay for apoptosis (apoptotic EC50)
- Assay type: cell-based, human
- Condition parameters: Homo sapiens, unit inferred
Please provide measured EC50 for the entries that follow.

Reference set (3 entries):
compound="CC(C)=CCC/C(C)=C\\C=C/[C@]1(C)CCc2c(C)c(OCC(=O)O)c(C)c(C)c2O1 [Compound 26]" experimental_system=DU-145 result="> 20 µg/mL"
compound="CCCCCCC[C@]1(C)CCc2c(C)c(OCC(=O)O)c(C)c(C)c2O1 [Compound 23]" experimental_system=DU-145 result="> 20 µg/mL"
compound="Cc1c(C)c2c(c(C)c1OCC(=O)O)CC[C@@](C)(CCC[C@H](C)CCC[C@H](C)CCCC(C)C)O2 [Compound 1]" experimental_system=DU-145 result="5 to 10 µg/mL"

Answer for every listed entry: what is its EC50? The entries follow.
1. CCCCCCCCCCCCC[C@]1(C)CCc2c(C)c(OCC(=O)O)c(C)c(C)c2O1 [Compound 24]
2. CCCCCCCCCCCCCCCCC[C@]1(C)CCc2c(C)c(OCC(=O)O)c(C)c(C)c2O1 [Compound 25]
3. Cc1c(C)c2c(c(C)c1OCC(=O)O)C=C[C@@](C)(CCC[C@H](C)CCC[C@H](C)CCCC(C)C)O2 [Compound 20]

Result:
1. > 20 µg/mL
2. 20 to 30 µg/mL
3. 5 to 10 µg/mL
